Consider the following binders; for each one, report its % recovery in Flow.
- system.under.test: REFACTO® factor VIII-like polypeptide (amino acids 1-743 and 1638 through 2332 of human factor VIII) (human) (UniProt P00451)
- Sequence (P00451 20-762, chain 1 of 2): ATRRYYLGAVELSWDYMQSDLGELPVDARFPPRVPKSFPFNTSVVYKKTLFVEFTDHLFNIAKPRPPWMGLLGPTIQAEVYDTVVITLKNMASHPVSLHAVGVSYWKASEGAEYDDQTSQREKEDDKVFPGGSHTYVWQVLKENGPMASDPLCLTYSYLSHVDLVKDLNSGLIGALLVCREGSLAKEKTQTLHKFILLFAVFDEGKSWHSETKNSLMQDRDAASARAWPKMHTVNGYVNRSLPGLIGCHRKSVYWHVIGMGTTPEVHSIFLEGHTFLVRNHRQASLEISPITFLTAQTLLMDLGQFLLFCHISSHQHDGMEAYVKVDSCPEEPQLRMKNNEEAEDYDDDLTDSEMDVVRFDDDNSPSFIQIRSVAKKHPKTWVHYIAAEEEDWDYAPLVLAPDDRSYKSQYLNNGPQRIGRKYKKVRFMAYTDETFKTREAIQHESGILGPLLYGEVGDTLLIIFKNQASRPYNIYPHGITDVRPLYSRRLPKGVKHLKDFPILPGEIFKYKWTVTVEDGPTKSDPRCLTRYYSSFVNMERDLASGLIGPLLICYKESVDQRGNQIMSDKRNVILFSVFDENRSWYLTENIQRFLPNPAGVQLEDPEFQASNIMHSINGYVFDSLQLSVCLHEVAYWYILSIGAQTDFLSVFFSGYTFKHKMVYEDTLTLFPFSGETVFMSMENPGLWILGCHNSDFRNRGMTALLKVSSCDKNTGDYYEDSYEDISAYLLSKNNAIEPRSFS
- Sequence (P00451 1657-2351, chain 2 of 2): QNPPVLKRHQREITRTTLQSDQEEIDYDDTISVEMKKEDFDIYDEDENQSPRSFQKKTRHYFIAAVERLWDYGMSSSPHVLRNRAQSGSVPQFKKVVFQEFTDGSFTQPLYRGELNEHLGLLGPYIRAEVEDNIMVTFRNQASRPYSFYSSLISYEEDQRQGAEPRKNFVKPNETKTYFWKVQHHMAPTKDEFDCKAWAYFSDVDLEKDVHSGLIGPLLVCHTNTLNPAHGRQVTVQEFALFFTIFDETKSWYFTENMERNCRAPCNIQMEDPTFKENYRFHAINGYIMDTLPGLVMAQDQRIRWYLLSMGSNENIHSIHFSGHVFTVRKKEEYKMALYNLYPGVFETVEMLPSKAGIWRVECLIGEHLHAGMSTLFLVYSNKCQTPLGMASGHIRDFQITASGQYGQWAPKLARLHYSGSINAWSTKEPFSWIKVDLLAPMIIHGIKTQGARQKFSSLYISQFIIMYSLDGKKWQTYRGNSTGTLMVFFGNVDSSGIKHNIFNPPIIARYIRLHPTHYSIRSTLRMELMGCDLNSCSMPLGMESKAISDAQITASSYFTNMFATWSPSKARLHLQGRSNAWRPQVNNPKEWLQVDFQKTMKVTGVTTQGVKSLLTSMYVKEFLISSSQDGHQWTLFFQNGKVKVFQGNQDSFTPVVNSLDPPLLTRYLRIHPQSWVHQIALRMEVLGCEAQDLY
- method: affinity column of immobilised peptide; fractions by factor VIII activity assay
Positions of bridges follow the written chain, without caps; N, C: chain ends. No end group written: not given here. *: point of attachment. NHNH2 = NN*
Give bare numbers, in %.

[[record]]
binder = "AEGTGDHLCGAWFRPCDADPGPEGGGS-NHNH2 (disulfide 9-16 (inferred)) [Affinity ligand CS-454]"
quantitative_result = 2.2


Batch request: % recovery in Flow for each of the following binders.
1. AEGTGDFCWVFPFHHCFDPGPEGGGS-NHNH2 (disulfide 8-16 (inferred)) [Affinity ligand CS-460]
2. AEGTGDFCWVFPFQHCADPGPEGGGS-NHNH2 (disulfide 8-16 (inferred)) [Affinity ligand CS-459]
3. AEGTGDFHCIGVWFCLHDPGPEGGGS-NHNH2 (disulfide 9-15 (inferred)) [Affinity ligand CS-455]

1: 28.4; 2: 6.4; 3: 61.6
